Readings of ΔΗ for the listed compounds
target: Hsc70-NBD (Homo sapiens, UniProt P11142); test: ITC binding of modified ADP analogues to Hsc70-NBD; details: ITC, 25 °C, Hsc70-NBD, binding enthalpy change
Sequence (P11142 1-385): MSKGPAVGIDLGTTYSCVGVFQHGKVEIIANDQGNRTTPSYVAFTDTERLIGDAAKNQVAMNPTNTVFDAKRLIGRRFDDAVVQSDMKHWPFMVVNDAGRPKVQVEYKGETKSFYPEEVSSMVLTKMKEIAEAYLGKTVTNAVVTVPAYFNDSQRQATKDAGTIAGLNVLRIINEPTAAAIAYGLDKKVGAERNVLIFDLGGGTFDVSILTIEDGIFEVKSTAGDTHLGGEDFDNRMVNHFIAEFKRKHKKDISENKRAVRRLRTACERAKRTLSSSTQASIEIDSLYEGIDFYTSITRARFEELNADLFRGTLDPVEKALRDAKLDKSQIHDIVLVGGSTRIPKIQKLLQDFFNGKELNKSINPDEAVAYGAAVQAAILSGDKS
Measure: ΔΗ (kcal/mol)

{"Compound": "O=P(O)(O)OP(=O)(O)OC[C@H]1O[C@@H](n2cnc3c(NCc4ccccc4)ncnc32)[C@H](O)[C@@H]1O [6-Bn ADP, N6-benzyladenosine-5’-diphosphate]", "Measure": "ΔΗ", "Reported measurement": -4.077}
{"Compound": "O=P(O)(O)OP(=O)(O)OC[C@H]1O[C@@H](n2cnc3c(NC4CCCCC4)ncnc32)[C@H](O)[C@@H]1O [6-cHe ADP, N6-cyclohexyladenosine-5’-diphosphate]", "Measure": "ΔΗ", "Reported measurement": -6.006}
{"Compound": "O=P(O)(O)OP(=O)(O)OC[C@H]1O[C@@H](n2cnc3c(NCCc4ccccc4)ncnc32)[C@H](O)[C@@H]1O", "Measure": "ΔΗ", "Reported measurement": -4.316}
